Molecular target: unphosphorylated c-FMS kinase (uFMS, Seq. ID no. 1) (Homo sapiens)
Sequence (P07333 538-972): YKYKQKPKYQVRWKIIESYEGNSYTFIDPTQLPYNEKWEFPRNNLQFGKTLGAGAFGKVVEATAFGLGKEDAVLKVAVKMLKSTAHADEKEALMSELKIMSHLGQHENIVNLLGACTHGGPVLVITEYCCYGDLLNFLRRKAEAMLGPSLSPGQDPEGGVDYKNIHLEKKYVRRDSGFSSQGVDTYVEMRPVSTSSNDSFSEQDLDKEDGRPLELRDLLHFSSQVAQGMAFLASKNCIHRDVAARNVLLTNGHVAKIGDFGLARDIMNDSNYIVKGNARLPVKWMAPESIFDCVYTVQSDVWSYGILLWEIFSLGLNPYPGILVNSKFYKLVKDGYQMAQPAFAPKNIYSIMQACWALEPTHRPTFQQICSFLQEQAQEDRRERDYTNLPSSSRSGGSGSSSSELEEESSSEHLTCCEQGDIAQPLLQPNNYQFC
Test: biochemical
Details: uFMS, enzymatic assay, ATP 500 μM
Property: IC50

1. Cn1cc(-c2cc(Oc3ccc(NC(=O)NC(=O)CC4CCOCC4)nc3)ccn2)cn1 [Example 4]	< 10 nM
2. Cc1ncc(-c2cc(Oc3ccc(NC(=O)NC(=O)C4(C)CCOCC4)nc3)ccn2)o1 [Example 163]	10 to 100 nM
3. Cn1cc(-c2cc(Oc3ccc(NC(=O)NC(=O)C4CC5(CCC5)C4)nc3)ccn2)cn1 [Example 31]	< 10 nM
4. CCn1cc(-c2cc(Oc3ccc(NC(=O)NC(=O)C(C)(C)OC)nc3)ccn2)cn1 [Example 170]	< 10 nM
5. CCOC(C)(C)C(=O)NC(=O)Nc1ccc(Oc2ccnc(-c3cnn(C)c3)c2)c(C)n1 [Example 127]	< 10 nM
6. CC(C)(C)C(=O)NC(=O)Nc1ccc(Oc2ccnc(-c3ccc(C(F)(F)F)nc3)c2)cn1 [Example 94]	< 10 nM
7. CCOC(C)(C)C(=O)NC(=O)Nc1ccc(Oc2ccnc(-c3cnn(C)c3)c2)cn1 [Example 123]	< 10 nM
8. Cn1cc(-c2cc(Oc3ccc(NC(=O)NC(=O)C(C)(C)C#N)nc3)ccn2)cn1 [Example 30]	100 to 1000 nM
9. Cc1cn(-c2cc(Oc3cnc(NC(=O)NC(=O)C(C)(C)C)cc3C)ccn2)cn1 [Example 148]	< 10 nM
10. COC1(C(=O)NC(=O)Nc2ccc(Oc3ccnc(-n4cnc(C)c4)c3)cn2)CCCC1 [Example 154]	< 10 nM
11. Cn1cc(-c2cc(Oc3ccc(NC(=O)NC(=O)C4(C)CCC4)nc3)ccn2)cn1 [Example 87]	< 10 nM
12. Cn1cc(-c2cc(Oc3ccc(NC(=O)NC(=O)C4CCOCC4)nc3)ccn2)cn1 [Example 68]	< 10 nM
13. Cc1nc(NC(=O)NC(=O)CCC2(C(F)(F)F)CC2)ccc1Oc1ccnc(-c2cnn(C)c2)c1 [Example 11]	< 10 nM
14. Cn1cc(-c2cc(Oc3ccc(NC(=O)NC(=O)C4CCOC4)nc3)ccn2)cn1 (stereo not shown) [Example 66]	< 10 nM
15. Cn1cc(-c2cc(Oc3ccc(NC(=O)NC(=O)C45CC6CC(CC(C6)C4)C5)nc3)ccn2)cn1 [Example 38]	< 10 nM
16. Cc1ccc(-c2cc(Oc3ccc(NC(=O)NC(=O)C(C)C)nc3C)ccn2)cn1 [Example 71]	< 10 nM
17. Cn1cc(-c2cc(Oc3ccc(NC(=O)NC(=O)C4CC5CCC4C5)nc3)ccn2)cn1 (stereo not shown) [Example 64]	< 10 nM
18. Cc1nc(NC(=O)NC(=O)C2(C#N)CC2)ccc1Oc1ccnc(-c2cnn(C)c2)c1 [Example 28]	100 to 1000 nM
19. CCC(C)(C)C(=O)NC(=O)Nc1ccc(Oc2ccnc(-c3cnn(C)c3)c2)cn1 [Example 63]	< 10 nM
20. Cn1cc(-c2cc(Oc3ccc(NC(=O)NC(=O)C4CC(C)(C)C4)nc3)ccn2)cn1 [Example 2]	< 10 nM
21. CCC(C)(C)C(=O)NC(=O)Nc1ccc(Oc2ccnc(-c3cnn(C)c3)c2)c(C)n1 [Example 69]	< 10 nM
22. CCc1nc(NC(=O)NC(=O)C2(OC)CC2)ccc1Oc1ccnc(-c2cnn(C)c2)c1 [Example 141]	10 to 100 nM
23. Cc1cn(-c2cc(Oc3ccc(NC(=O)NC(=O)[C@@H]4C[C@H]5CC[C@@H]4O5)nc3C)ccn2)cn1 (relative stereo) [Example 137]	10 to 100 nM
24. Cn1cc(-c2cc(Oc3ccc(NC(=O)NC(=O)C4(C)CCOCC4)nc3)ccn2)cn1 [Example 175]	< 10 nM
25. CCn1cc(-c2cc(Oc3ccc(NC(=O)NC(=O)C(C)C)nc3C)ccn2)cn1 [Example 61]	< 10 nM
26. Cc1cn(-c2cc(Oc3ccc(NC(=O)NC(=O)C4(C)CC4)nc3C)ccn2)cn1 [Example 135]	10 to 100 nM
27. Cn1cc(-c2cc(Oc3ccc(NC(=O)NC(=O)C4(C#N)CC4)nc3)ccn2)cn1 [Example 27]	> 1000 nM
28. COC(C)(C)C(=O)NC(=O)Nc1ccc(Oc2ccnc(-c3cnc(C(C)C)[nH]3)c2)cn1 [Example 173]	10 to 100 nM
29. Cn1cc(-c2cc(Oc3ccc(NC(=O)NC(=O)C(C)(C)C)nc3)ccn2)cn1 [Example 26]	< 10 nM
30. COC(C)(C)C(=O)NC(=O)Nc1cc(C)c(Oc2ccnc(-c3cnn(C)c3)c2)cn1 [Example 91]	< 10 nM
31. CCn1cc(-c2cc(Oc3ccc(NC(=O)NC(=O)C(C)(C)C)nc3C)ccn2)cn1 [Example 60]	< 10 nM
